Test name: ulcerogenic effect (stomach haemorrhage and ulcers)
Type: in vivo, male Wistar rats
Conditions used: rat, po, acute test, rats, five hours after treatment, read-out: UD50
Experimental readout: TD50 at 5 h (mg/kg)
The reply should contain only the number, in mg/kg.

### Prompt I'd like to know its TD50 at 5 h. The compound in question is COc1ccc2c(c1)c(CC(=O)O)c(C)n2C(=O)c1ccc(Cl)cc1 [Indomethacin, reference compound]
### Response 6.3

###

Entries and their change in vivo at 25 mg/kg
Test name: hot (56° C.) plate test on mice (analgesic effect)
Format: in vivo, male and female CFLP strain mice
Conditions used: Mus musculus, po, 1 h, 25 mg/kg p.o., read-out: Lengthening of reaction time in %

Observe how each entry below is paired with its result.
### Prompt # get_value(readout='change in vivo at 25 mg/kg', item= `CCc1nc(Sc2nc3ccc(C)cc3cc2C)n[nH]1` )
### Response 25%

### Prompt Next up: `Cc1cc2ccccc2nc1-n1cncn1`
### Response 16%

### Prompt Then this compound: `Cc1cc2ccccc2nc1Sc1nc[nH]n1`
### Response 34%

Please look at the following compound next.
### Prompt Look at this compound and give its reported change in vivo at 25 mg/kg. `Cc1cc(Sc2n[nH]c(C)n2)c2ccccc2n1`
### Response 19%

###

Tested on: Erysiphe graminis f. sp. tritici
Test name: antifungal effect on Erysiphe graminis (powdery mildew on wheat plants, glasshouse)
Assay type: in vivo
Conditions used: Blumeria graminis; 400 μg/ml
Listed here: items and their measured inhibition at 400 µg/mL.
Please reply with the bare figure in % and do not write the unit itself.

### Prompt Given the entry Cc1cc(-n2cncn2)c2cccc(C)c2n1 [Compound 6] , report its measured inhibition at 400 µg/mL.
### Response 99.4

### Prompt Ok, now COc1cccc2c(-n3cncn3)cc(C)nc12 [Compound 8]
### Response 98.8

### Prompt Clc1ccc2c(-n3cncn3)ccnc2c1 [Compound 1] ?
### Response 99.6

***
### Prompt What value of inhibition at 400 µg/mL has been reported for the following compound? Cc1cc(-n2cncn2)c2cccc(Cl)c2n1 [Compound 10]
### Response 90.1

### Prompt And the next one, Cc1cc(-n2cncn2)c2ccc(Cl)c(Cl)c2n1 [Compound 22] ?
### Response 96.9

###

Recorded measurements of inhibition at 100 µg/mL, one per entry
Test system: Erysiphe graminis f. sp. tritici
Test name: antifungal effect on Erysiphe graminis (powdery mildew on wheat plants, glasshouse)
Format: in vivo
Conditions used: Blumeria graminis; 100 μg/ml
Respond numerically; units are % and should not be typed.

// below: answered compounds
### Prompt Item Cc1cc(-n2cncn2)c2ccc(Cl)c(Cl)c2n1 [Compound 22] has what recorded inhibition at 100 µg/mL?
### Response 79.8

### Prompt Now the compound Cc1cc(-n2cncn2)c2cccc(C)c2n1 [Compound 6]
### Response 85.1

### Prompt Please give the result for Cc1cc(-n2cncn2)c2cccc(Cl)c2n1 [Compound 10] too.
### Response 76.4

### Prompt One more compound: Clc1ccc2c(-n3cncn3)ccnc2c1 [Compound 1]
### Response 85.3

***
### Prompt Name the reported inhibition at 100 µg/mL value associated with the compound COc1cccc2c(-n3cncn3)cc(C)nc12 [Compound 8]
### Response 82

###

Test name: hot (56° C.) plate test on mice (analgesic effect)
Assay type: in vivo, male and female CFLP strain mice
Conditions used: Mus musculus, po, 1 h, 50 mg/kg p.o., read-out: Lengthening of reaction time in %
Documented change in vivo at 50 mg/kg across a set of compounds
# output: bare number, implied unit %

Recorded change in vivo at 50 mg/kg, per entry:
### Prompt I have this compound here, Cc1cc(Sc2n[nH]c(C)n2)c2ccccc2n1 [Compound 62] , and I need its recorded change in vivo at 50 mg/kg.
### Response 30

### Prompt Try this compound too: Cc1cc(Sc2n[nH]c(C)n2)c2ccc(Cl)c(C)c2n1 [Compound 69]
### Response 24

### Prompt And the next one, COc1ccc2cc([C@H](C)C(=O)O)ccc2c1 [Naproxen, reference compound] ?
### Response 45

### Prompt Also check Cc1cc(Sc2n[nH]c(C)n2)c2cccc(C)c2n1 [Compound 64]
### Response 39

### Prompt Another compound: Cc1cc2ccccc2nc1-n1cncn1 [Compound 83]
### Response 28

### Prompt Now the compound Cc1cc2ccccc2nc1Sc1nc[nH]n1 [Compound 107]
### Response 41

### Prompt Cool, now Cc1nc(Sc2ccnc3cc(Cl)ccc23)n[nH]1 [Compound 61]
### Response 22

### Prompt Now the same for Cc1cc2cccc(C)c2nc1Sc1nc[nH]n1 [Compound 110]
### Response 34

### Prompt What about this compound? CCc1nc(Sc2nc3ccc(C)cc3cc2C)n[nH]1 [Compound 138]
### Response 37

### Prompt Also Cc1ccc2nc(Sc3nc[nH]n3)c(C)cc2c1 [Compound 108] , if possible.
### Response 46

---
### Prompt Returns the measured change in vivo at 50 mg/kg for the input compound. Input: CCc1nc(Sc2cc(C)nc3ccc(C)cc23)n[nH]1 [Compound 74]
### Response 26

### Prompt Another compound to check: Cc1cc(Sc2nc[nH]n2)c2cccc(Cl)c2n1 [Compound 46]
### Response 18

###

Test name: carrageenin edema inhibition in rats (antiphlogistic effect), Winter method
Format: in vivo, male Wistar rats
Conditions used: Rattus norvegicus, po; 50 mg/kg p.o., rats; read-out: Percental inhibition of paw volume
# inhibition in vivo at 50 mg/kg per entry
Give a bare numeral; the unit % is implied.

### Prompt Consider the molecule shown here: `Cc1cc(Sc2n[nH]c(C)n2)c2ccccc2n1` What is its recorded inhibition in vivo at 50 mg/kg?
### Response 59

---
### Prompt Give its inhibition in vivo at 50 mg/kg value. Item: COc1ccc2cc([C@H](C)C(=O)O)ccc2c1 [Naproxen, reference compound]
### Response 64

### Prompt Another: `CCc1nc(Sc2cc(C)nc3ccc(C)cc23)n[nH]1`
### Response 69

### Prompt Similarly, CCCCC1C(=O)N(c2ccccc2)N(c2ccccc2)C1=O [Phenylbutazon, reference compound] ?
### Response 42

### Prompt Also `Cc1cc(Sc2n[nH]c(C)n2)c2ccc(Cl)c(C)c2n1` , if possible.
### Response 52

### Prompt Now the same for `Cc1cc2ccccc2nc1-n1cncn1`
### Response 70

### Prompt // same read-out, input: `Cc1cc2ccccc2nc1Sc1nc[nH]n1`
### Response 70

###

Test name: hot (56° C.) plate test on mice (analgesic effect)
Assay type: in vivo, male and female CFLP strain mice
Conditions used: Mus musculus, po, 1 h, 25 mg/kg p.o., read-out: Lengthening of reaction time in %
Experimental readout: change in vivo at 25 mg/kg (%)
Report the value in % with no unit label.

Past entries and their recorded results:
### Prompt Name the recorded change in vivo at 25 mg/kg for Cc1cc(Sc2n[nH]c(C)n2)c2cccc(C)c2n1 [Compound 64] .
### Response 17

### Prompt Next entry: Cc1ccc2nc(Sc3nc[nH]n3)c(C)cc2c1 [Compound 108]
### Response 34

### Prompt Next up: Cc1cc(Sc2n[nH]c(C)n2)c2ccc(Cl)c(C)c2n1 [Compound 69]
### Response 13

### Prompt Repeat for the following compound: Cc1cc(Sc2nc[nH]n2)c2cccc(Cl)c2n1 [Compound 46]
### Response 7

### Prompt Entry to check: CCc1nc(Sc2cc(C)nc3ccc(C)cc23)n[nH]1 [Compound 74]
### Response 19

Continuing:
### Prompt Query (compound): COc1ccc2cc([C@H](C)C(=O)O)ccc2c1 [Naproxen, reference compound] ; field requested: change in vivo at 25 mg/kg
### Response 31

### Prompt Same lookup for Cc1nc(Sc2ccnc3cc(Cl)ccc23)n[nH]1 [Compound 61] , please.
### Response 20

### Prompt Another compound: Cc1cc2cccc(C)c2nc1Sc1nc[nH]n1 [Compound 110]
### Response 21

###

Test name: carrageenin edema inhibition in rats (antiphlogistic effect), Winter method
Type: in vivo, male Wistar rats
Conditions used: Rattus norvegicus, po; 50 mg/kg p.o., rats; read-out: Percental inhibition of paw volume
Experimental readout: inhibition in vivo at 50 mg/kg (%)
Record the value in %, omitting the unit from your answer.

// solved cases for inhibition in vivo at 50 mg/kg follow
### Prompt Could you share which inhibition in vivo at 50 mg/kg value was measured for `Cc1cc(Sc2n[nH]c(C)n2)c2cccc(C)c2n1` ?
### Response 44

### Prompt Then what about the compound `Cc1ccc2nc(Sc3nc[nH]n3)c(C)cc2c1` ?
### Response 61

---
### Prompt // inhibition in vivo at 50 mg/kg lookup, key: `Cc1cc2cccc(C)c2nc1Sc1nc[nH]n1`
### Response 46
